As shown below, each of these molecules has a reported IC50 value.
biological target: Acetylcholinesterase (Torpedo californica, UniProt P04058)
Sequence (P04058 whole entry): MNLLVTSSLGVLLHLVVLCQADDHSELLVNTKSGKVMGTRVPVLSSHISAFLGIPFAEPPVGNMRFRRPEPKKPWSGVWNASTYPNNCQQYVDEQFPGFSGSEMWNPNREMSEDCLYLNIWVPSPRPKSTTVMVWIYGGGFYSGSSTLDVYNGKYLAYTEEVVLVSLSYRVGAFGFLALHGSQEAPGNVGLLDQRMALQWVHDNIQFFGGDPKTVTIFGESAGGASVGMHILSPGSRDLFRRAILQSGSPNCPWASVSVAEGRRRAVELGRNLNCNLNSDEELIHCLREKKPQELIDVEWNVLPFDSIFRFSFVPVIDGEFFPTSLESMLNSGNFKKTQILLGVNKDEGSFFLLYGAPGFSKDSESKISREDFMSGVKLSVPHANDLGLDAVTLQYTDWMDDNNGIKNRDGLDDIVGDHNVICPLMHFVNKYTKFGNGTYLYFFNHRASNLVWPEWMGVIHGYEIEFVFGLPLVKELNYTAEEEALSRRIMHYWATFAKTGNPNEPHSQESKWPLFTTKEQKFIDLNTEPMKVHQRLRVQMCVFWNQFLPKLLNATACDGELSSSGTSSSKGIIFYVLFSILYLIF
All answers are understood in µM, so give the number only.

Recorded IC50, per entry:
c1ccc(-c2ccc(NCCN3CCOCC3)nn2)cc1 = 800
c1ccc(CN2CCC(CNc3ccc(-c4ccccc4)nn3)CC2)cc1 = 5.6
c1ccc(CN2CCC(Nc3ccc(-c4ccccc4)nn3)CC2)cc1 = 65

# evaluate next
Q. Given CN(CCNc1ccc(-c2ccccc2)nn1)Cc1ccccc1 , state its recorded IC50.
A. 170

----------
Each entry below carries its reported IC50.
target: Cholinesterase (Homo sapiens); experiment: Inhibitory concentration against Butyrylcholinesterase (BuChE) from human serum
Sequence (P06276 whole entry): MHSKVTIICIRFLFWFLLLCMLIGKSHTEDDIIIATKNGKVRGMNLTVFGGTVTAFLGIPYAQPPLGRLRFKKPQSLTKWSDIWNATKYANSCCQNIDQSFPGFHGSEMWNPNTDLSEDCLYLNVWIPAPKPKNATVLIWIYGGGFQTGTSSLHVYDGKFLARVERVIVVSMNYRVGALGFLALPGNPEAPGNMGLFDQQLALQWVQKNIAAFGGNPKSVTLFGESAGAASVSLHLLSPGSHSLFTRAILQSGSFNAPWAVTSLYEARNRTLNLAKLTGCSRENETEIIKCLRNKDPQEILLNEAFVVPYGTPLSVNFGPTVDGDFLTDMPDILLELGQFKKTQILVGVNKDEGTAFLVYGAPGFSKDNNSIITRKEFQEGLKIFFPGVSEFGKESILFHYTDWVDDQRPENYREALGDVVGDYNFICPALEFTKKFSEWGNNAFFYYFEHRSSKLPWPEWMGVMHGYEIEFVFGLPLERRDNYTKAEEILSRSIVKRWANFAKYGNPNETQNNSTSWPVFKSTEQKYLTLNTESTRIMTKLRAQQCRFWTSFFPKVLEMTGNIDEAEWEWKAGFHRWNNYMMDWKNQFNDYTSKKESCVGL
Output spec: scalar in nM, unitless text.

// below: answered molecules
c1ccc(-c2ccc(NCCCCCN3CCc4ccccc4C3)nn2)cc1 = 310
c1ccc(CN2CCC(CCNc3ccc(-c4ccccc4)nn3)CC2)cc1 = 700

Q. Suppose we examine the molecule CN(CCCCCNc1ccc(-c2ccccc2)nn1)Cc1ccccc1 ; what IC50 value has been reported?
A. 340
